Listing: IC50 of selected compounds
Target: Sentrin-specific protease 8 (Homo sapiens);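 also: luminescence read-out of SENP8 inhibition, dose-response confirmation following an ultra-high-throughput screen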
Sequence (Q96LD8 whole entry): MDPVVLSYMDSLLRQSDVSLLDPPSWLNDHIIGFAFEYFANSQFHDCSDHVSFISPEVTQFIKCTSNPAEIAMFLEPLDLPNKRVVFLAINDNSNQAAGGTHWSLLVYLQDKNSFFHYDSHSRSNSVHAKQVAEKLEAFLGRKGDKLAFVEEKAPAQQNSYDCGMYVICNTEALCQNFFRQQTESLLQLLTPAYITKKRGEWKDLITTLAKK
Format: functional
The source made the active and inactive calls.
QUANTITY: IC50

INSERT INTO measurements (chemical_smiles, reported_value) VALUES
  ('COc1ccc(C(N)=NOC(=O)CSc2ccccc2)cc1', '12.8 µM (active)'),
  ('CCCCOC(=O)Nc1ccc2c(C)cc(=O)oc2c1', '12.7 µM (active)'),
  ('O=C(c1cc(-c2ccc(Cl)cc2Cl)on1)N1CCCCCC1', '20.5 µM (active)'),
  ('Cc1ccc(-c2nnc(SCc3ccccc3F)o2)cc1', '21.4 µM (active)'),
  ('Cc1cc(C=C2C(=O)c3ccccc3C2=O)c(C)n1C', '74.6 µM (active)'),
  ('Cc1ccc(C(=O)NC2(O)C(=O)c3ccccc3C2=O)cc1C', '4.89 µM (active)');
